B1: tRNA (parent)
chain: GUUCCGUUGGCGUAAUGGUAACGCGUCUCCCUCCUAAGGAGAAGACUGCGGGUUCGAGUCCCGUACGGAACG

Variants of: B1
Assay notes: yeast fitness relative to wild type (ratio to wild type); higher = fitter; tRNA-Arg(CCU), competitive growth, 37 C, YPD
Variants at the floor of the assay were thinned out.
Reported endpoint: yeast fitness
Answers are plain numbers.

Recorded yeast fitness, per entry:
C46G U53A
0.75
G17A A70C
0.842
A65C A70C
1.03
G17C C24U C49U U59A
0.533

Please state yeast fitness for every variant in the list that follows.
1. G25A C29U A65G
2. G56A G68C
3. C49U G67U
4. A45C G67C
5. A43G U47C A65U

1: 0.704; 2: 0.838; 3: 0.885; 4: 0.639; 5: 0.668
